Recorded half-life, one value per entry.
test: Pharmacokinetics after intravenous and oral administration in rats; assay type: in vivo; settings: rat, plasma, iv dosing, dose 1 mg/kg
Please reply with the bare figure in min and do not write the unit itself.

Here's what some known entries look like.
> print(dat)
                                   molecule  readout.number
1  Cn1cc(Nc2ncc(Cl)c(N[C@@H]3COC4C3OC[C@@H]4NS(=O)(=O)CC(F)(F)F)n2)cn1 (stereo partly drawn) [Ex. 27]            62.4
2  Cn1cc(Nc2ncc(Cl)c(N[C@@H]3COC4C3OC[C@@H]4NS(=O)(=O)C3CCOC3)n2)cn1 (stereo partly drawn) [Ex. 20]            27.6
3  CNC(=O)N[C@H]1COC2C1OC[C@H]2Nc1nc(Nc2cnn(C)c2)ncc1Cl (stereo partly drawn) [Ex. 1]            13.8
4  Cn1cc(Nc2ncc(Cl)c(N[C@@H]3COC4C3OC[C@@H]4Nc3ccc(C#N)cn3)n2)cn1 (stereo partly drawn) [Ex. 23]              27
5  CCC(C)CS(=O)(=O)N[C@H]1COC2C1OC[C@H]2Nc1nc(Nc2cnn(C)c2)ncc1Cl (stereo partly drawn) [Ex. 33]            17.4

Would you kindly look at the next entry?
Data point: Cn1cc(Nc2ncc(Cl)c(N[C@@H]3COC4C3OC[C@@H]4NS(=O)(=O)CC(C)(C)C#N)n2)cn1 (stereo partly drawn) [Ex. 26] ; half-life = 35.4
